- system name: D(2) dopamine receptor (Homo sapiens) (UniProt P14416)
- Sequence (P14416 whole entry, looked up): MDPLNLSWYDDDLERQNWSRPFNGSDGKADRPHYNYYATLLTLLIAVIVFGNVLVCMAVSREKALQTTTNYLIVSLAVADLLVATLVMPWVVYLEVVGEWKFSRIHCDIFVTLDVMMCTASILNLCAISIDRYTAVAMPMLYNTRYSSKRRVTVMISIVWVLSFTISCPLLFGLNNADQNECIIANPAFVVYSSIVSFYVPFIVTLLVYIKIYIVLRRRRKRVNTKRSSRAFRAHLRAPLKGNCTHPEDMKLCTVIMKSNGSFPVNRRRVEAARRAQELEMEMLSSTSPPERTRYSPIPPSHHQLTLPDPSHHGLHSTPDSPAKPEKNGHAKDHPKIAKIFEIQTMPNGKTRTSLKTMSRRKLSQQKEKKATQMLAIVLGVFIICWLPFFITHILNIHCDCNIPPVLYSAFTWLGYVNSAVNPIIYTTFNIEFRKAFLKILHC
- measurement description: Dopamine D2 receptor (DRD2) small molecule antagonists, cell-based qHTS assay (AID 1963595); also: potency is read from the fitted curve at half-maximal effect
- reported conditions: HEK293-DRD2 cAMP HTRF antagonist mode; series mostly up to 92.4 µM
Inconclusive results are not listed. Active and inactive are the calls of the source. Calls follow the shape of the dose curve; as a rule, active = well fitted inhibition curve with a large enough effect in the signal ratio in the repeat runs, with a control signal flat; inconclusive = weak or mixed curves, or effect the other way; inactive = flat fitted curve, though single readings scatter; the % refers to the signal ratio.
endpoint name: Potency

Completed entries (count: 6):
molecule	Potency
CC[C@H]1O[C@]2(CC[C@@H]1C)C[C@@H]1C[C@@H](C/C=C(\C)C[C@@H](C)/C=C/C=C3\CO[C@@H]4[C@H](O)C(C)=C[C@@H](C(=O)O1)[C@]34O)O2	48.1 µM (active)
O=C(O)c1c(Cl)ccc(Cl)c1Cl	inactive
C/C=C1\C(=O)C[C@H]2[C@@H]3CCC4=CC(=O)CC[C@]4(C)[C@H]3CC[C@]12C	inactive
O=C(O)CCCCCCCCCCCBr	inactive
CCCCC/C=C\C/C=C\CCCCCCCC(=O)NC(C)c1ccccc1 (stereo unspecified)	inactive
CCCCCCCCCCC[C@@H](C[C@@H]1OC(=O)[C@H]1CCCCCC)OC(=O)[C@H](CC(C)C)NC=O	inactive

For reference, reported Potency for CS(=O)(=O)c1ccc([C@@H](O)[C@@H](CF)NC(=O)C(Cl)Cl)cc1 stands at inactive

Noted for C=CC(C)(C)CC(=O)OC : its Potency reads inactive

Just so you know, measured Potency for CCOc1ccc2nc(S(N)(=O)=O)sc2c1 came out at inactive

Entry O=C1CCCCCCCCCCCCCCO1 — recorded Potency = inactive

Notebook: O=C1CCCc2c1cc1ccc3cccc4ccc2c1c34 , Potency read as inactive

====

- measurement description: p53 small molecule agonists, cell-based qHTS assay with rat liver microsomes: qHTS cell viability counter screen (AID 1963580); also: nearly all actives have a fitted effect of over 45% in size
- reported conditions: p53RE-bla HCT-116 + rat microsomes, ATP viability, 16 h; series mostly up to 66 µM
Inconclusive results are not listed. Active and inactive are the calls of the source. The call rests on the fitted dose curve.
Respond using exactly one of the listed classes: active, inactive

I'd appreciate the recorded outcome for O=C(c1ccccc1)c1ccc(O)cc1O from this test.
inactive

Hello, I am checking results. What call was entered for CN(C)CCOC(=O)C(c1ccccc1)C1(O)CCCC1 (stereo unspecified) ?
inactive

Which outcome was entered for the compound CN(C)c1ccc(C2(c3ccc(N(C)C)cc3)OC(=O)c3cc(N(C)C)ccc32)cc1 in this test?
inactive

Entry Cc1c(C(=O)NN2CCCCC2)nn(-c2ccc(Cl)cc2Cl)c1-c1ccc(Cl)cc1 : call = ?
inactive

Dear all, I need the recorded test outcome for CCN=C1C=CC(=C(c2ccc(N(CC)CC)cc2)c2ccc(N(CC)CC)cc2)c2ccccc21 , thank you.
active

Assay result, entry O=CC=C(c1ccccc1)c1ccccc1 — outcome?
inactive

What classification did COC1=C(OC)C(=O)C(CCCCCCCCCCO)=C(C)C1=O end up with in this test?
inactive

Assay outcome for CN1C[C@H]2c3ccccc3Oc3ccc(Cl)cc3[C@@H]2C1 : what was it?
inactive

In this assay, the call recorded for Nc1ccc2cc3ccc(N)cc3nc2c1 was what?
inactive

State the result this test recorded for O=C1Nc2ccc(Cl)cc2[C@@](C#CC2CC2)(C(F)(F)F)O1 .
inactive

Which outcome was assigned to CC(=O)NC1(c2cccc(F)c2)CCN(CC[C@@]2(c3ccc(Cl)c(Cl)c3)CN(c3ccccc3)C(=O)CO2)CC1 in this test?
inactive

For CCCCC(CC)COC(=O)COc1cc(Cl)c(Cl)cc1Cl (stereo unspecified) , what call appears in the results of this test?
inactive

Please share the test call associated with CCOC(=O)c1ccccc1OC .
inactive

Recorded call for CCCCCCCC/C=C/CCCCCCCC1=NCCN1CCO ?
inactive

For CCCCNCCCC , what call appears in the results of this test?
inactive

Outcome? COc1cccc2c1C(=O)c1c(O)c3c(c(O)c1C2=O)C[C@@](O)(C(=O)CO)C[C@@H]3O[C@H]1C[C@H](N)[C@H](O[C@@H]2CCCCO2)[C@H](C)O1
active

Short answer needed: outcome of this test for Cc1nc2ccc(CN(C)c3ccc(C(=O)N[C@@H](CCC(=O)O)C(=O)O)s3)cc2c(=O)[nH]1 ?
inactive

Each compound tested received a call. Report the one for O=c1cc(O)c(Cl)c[nH]1 .
inactive

Recorded test outcome, item COC(=O)Nc1nc2ccc(C(=O)c3ccccc3)cc2[nH]1
inactive

Hey, what did the test say about CCOC(=O)OCC ?
inactive

Field: outcome | Entry: Nc1cccc([N+](=O)[O-])c1
inactive

Hi, sorry to bother you, what did the test record for CC/C=C\CCCCCO ?
inactive

Given CCCCCCCC/C=C\CCCCCCCCO , state the outcome it received in this test.
inactive

What call does the record list for CC(C)NC(=O)c1ccc(C=O)cc1 ?
inactive

Write down the call the test reported for this compound. Item: c1ccc2c(c1)CCCC2C1=NCCN1 (stereo unspecified)
inactive

Identify the outcome logged in this assay for the compound shown: C/C(=C\c1ccc(C(=O)O)cc1)c1ccc2c(c1)C(C)(C)CCC2(C)C
inactive

Which outcome did this test record for the compound Cc1cc2c(cc1C(F)(F)F)N(C(=O)Nc1ccc(Oc3cccnc3C)nc1)CC2 ?
inactive

I'd appreciate the recorded outcome for CC(C(O)c1ccccc1)N(C)CCOC(c1ccccc1)c1ccccc1 (stereo unspecified) from this test.
inactive

Called result for CCCOC(=O)CC
inactive

Identify the outcome logged in this assay for the compound shown: c1ccc2c(c1)-c1ccc3ccc4cccc5cc-2c1c3c45
inactive

Call for entry O=[N+]([O-])c1cc[n+]([O-])cc1 :
inactive

Returns: the outcome recorded for Nc1c(I)cc(I)c(C(=O)N(CCC(=O)O)c2ccccc2)c1I in this assay.
inactive

In this assay, the call recorded for Cc1ncc([C@@H](CCCCCCc2ccc3c(n2)NCCC3)CC(=O)O)cn1 was what?
inactive

Call for entry C/C=C1\[C@H]2C=C(C)C[C@]1(N)c1ccc(=O)[nH]c1C2 :
inactive

Which outcome was assigned to O=C1[C@@H]2[C@H]3CC[C@H](C3)[C@@H]2C(=O)N1CCCCN1CCN(c2ncccn2)CC1 in this test?
inactive

Answer briefly: the call reported for Cc1ccc(C(N)=O)cc1N in this assay.
inactive

Please let me know the test result on file for CCC(C)N (stereo unspecified) .
inactive

Record request — test call for N#CCCOCCOCCC#N
inactive

Given O=S1(=O)CCCC1 , state the outcome it received in this test.
inactive

Hey, what did the test say about CN(C)CCOc1ccccc1Cc1ccccc1 ?
inactive

Identify the outcome logged in this assay for the compound shown: CCCCCCC[N+](CC)(CC)CCCCc1ccc(Cl)cc1
inactive

Tell me the assay call for CN(C)CCCN1c2ccccc2Sc2ccc(C(F)(F)F)cc21 please.
inactive

// return assay outcome for Nc1cccc2c(N)cccc12
inactive

Dear all, I need the recorded test outcome for Cc1nc([N+](=O)[O-])cn1-c1ccc([N+](=O)[O-])cc1 , thank you.
inactive

# fetch the recorded call for O=C(O)[C@@H]1CSCN1 here
inactive

Test call, this compound: CCCCC(CC)COC(=O)c1ccccc1 (stereo unspecified)
inactive

What did this assay record as the result for CCCCC/C=C\C=C\C(=O)OCC ?
inactive

Any idea what this test logged for Cc1cccc(OCC(O)CNC(C)(C)C)c1C (stereo unspecified) ?
inactive

Could you please tell me the result logged for Nc1cccnc1N in this assay?
inactive

What did this assay record as the result for CC1=CCC(C(C)C)C=C1 (stereo unspecified) ?
inactive

For CC(C)OC(=O)OCOP(=O)(CO[C@H](C)Cn1cnc2c(N)ncnc21)OCOC(=O)OC(C)C , what call appears in the results of this test?
inactive

====

- measurement description: cAMP Responsive Elements (CRE) small molecule agonists, cell-based qHTS assay (AID 1963590); also: potency is read from the fitted curve at half-maximal effect
- reported conditions: CRE-bla HEK293T, beta-lactamase FRET ratio, 3 h; series mostly up to 92.4 µM
Records with an inconclusive call do not appear. Active and inactive are the calls of the source. The call rests on the fitted dose curve.
Kindly state Potency for each of the entries shown.

Potency recorded for this compound, COc1cc(-c2ccc(=O)[nH]n2)ccc1OC(F)F , is 13.3 µM (active)

# compound CC(C)=CCNc1ncnc2c1ncn2[C@@H]1O[C@H](CO)[C@@H](O)[C@H]1O ; its Potency = 11.9 µM (active)

Value of measured Potency for the entry Cc1nc(Nc2ncc(C(=O)Nc3c(C)cccc3Cl)s2)cc(N2CCN(CCO)CC2)n1 : 0.841 µM (active)

Entry under test: COc1cc2c(cc1OC)-c1cc(=Nc3c(C)cc(C)cc3C)n(C)c(=O)n1CC2 . Its Potency was 4.22 µM (active)

====

- measurement description: G protein-coupled receptor (GPCR) small molecule agonists, calcium flux assay: HEK293 wild type cell line counter screen (AID 1920065)
- reported conditions: HEK293 WT calcium flux, fluorescence, agonist mode; series mostly up to 57.6 µM
Active and inactive are the calls of the source. Calls follow the shape of the full dose curve.
endpoint name: activation

These recorded examples may help you get a feel for the data.
CN[C@H]1CC[C@@H](c2ccc(Cl)c(Cl)c2)c2ccc(S(N)(=O)=O)cc21 inactive
CNCCCCOc1ccccc1Cc1ccccc1 inactive
COC(C)=O inactive
CC1CCN(CCCC(=O)c2ccc(F)cc2)CC1 inactive
O=C(O)CCc1nc(-c2ccccc2)c(-c2ccccc2)o1 inactive

Measured activation of C[C@H]1c2cccc(O)c2C(O)=C2C(=O)[C@]3(O)C(O)=C(C(N)=O)C(=O)[C@@H](N(C)C)[C@@H]3[C@@H](O)[C@@H]21 : inactive
